Would you mind telling me the reported Ratio Ki of each entry?
Species on record: Mus musculus
Assay: Selectivity ratio of Ki for mu opioid receptor in mouse whole brain without cerebellum to Ki for delta opioid receptor in mouse whole brain without cerebellum

q: What value of measured Ratio Ki is listed for CN1CC[C@]23Cc4nc5cc(F)ccc5cc4C[C@@]2(O)[C@H]1Cc1ccc(O)cc13 ?
a: 39.5

q: Let us now turn to CN1CC[C@]23Cc4nc5c([N+](=O)[O-])cccc5cc4C[C@@]2(O)[C@H]1Cc1ccc(O)cc13
a: 127

q: Let us now turn to CN1CC[C@]23Cc4nc5ccc(O)cc5cc4C[C@@]2(O)[C@H]1Cc1ccc(O)cc13
a: 4.9

q: Let us now turn to CN(C)c1cccc2nc3c(cc12)C[C@@]1(O)[C@H]2Cc4ccc(O)cc4[C@@]1(CCN2C)C3
a: 52.7

q: Let us now turn to CN1CC[C@]23Cc4nc5c(O)cccc5cc4C[C@@]2(O)[C@H]1Cc1ccc(O)cc13
a: 490

q: Let us now turn to CN1CC[C@]23Cc4nc5cc(C(F)(F)F)ccc5cc4C[C@@]2(O)[C@H]1Cc1ccc(O)cc13
a: 118

q: Let us now turn to COc1ccc2cc3c(nc2c1)C[C@]12CCN(C)[C@H](Cc4ccc(O)cc41)[C@]2(O)C3
a: 27.1

q: Let us now turn to CN(C)c1cccc2cc3c(nc12)C[C@]12CCN(C)[C@H](Cc4ccc(O)cc41)[C@]2(O)C3
a: 35.3

q: Let us now turn to CN1CC[C@]23Cc4nc5c(F)cccc5cc4C[C@@]2(O)[C@H]1Cc1ccc(O)cc13
a: 86.9

q: Let us now turn to CN1CC[C@]23Cc4nc5cccc(O)c5cc4C[C@@]2(O)[C@H]1Cc1ccc(O)cc13
a: 6.3

q: Let us now turn to CN1CC[C@]23Cc4nc5ccccc5cc4C[C@@]2(O)[C@H]1Cc1ccc(O)cc13
a: 134

q: Let us now turn to CN1CC[C@]23Cc4nc5ccc([N+](=O)[O-])cc5cc4C[C@@]2(O)[C@H]1Cc1ccc(O)cc13
a: 9.22

q: Let us now turn to Cc1ccc2nc3c(cc2c1)C[C@@]1(O)[C@H]2Cc4ccc(O)cc4[C@@]1(CCN2C)C3
a: 95.5

q: Let us now turn to Cc1ccc2cc3c(nc2c1)C[C@]12CCN(C)[C@H](Cc4ccc(O)cc41)[C@]2(O)C3
a: 95.7

q: Let us now turn to Cc1cccc2cc3c(nc12)C[C@]12CCN(C)[C@H](Cc4ccc(O)cc41)[C@]2(O)C3
a: 268

q: Let us now turn to COc1cccc2cc3c(nc12)C[C@]12CCN(C)[C@H](Cc4ccc(O)cc41)[C@]2(O)C3
a: 90.8

q: Let us now turn to CN1CC[C@]23Cc4nc5cccc(C(F)(F)F)c5cc4C[C@@]2(O)[C@H]1Cc1ccc(O)cc13
a: 250
